methodDescription: Selectivity ratio of IC50 for mouse L929 cells to IC50 for human A549 cells
Format: toxicity
testConditions: L929 cells versus A549 cells, read-out: Ratio IC50
readoutType: selectivity ratio

>>> numericreadout("Cn1c[n+](CC(=O)c2ccc([N+](=O)[O-])cc2)c2c1C(=O)c1ccccc1C2=O")
14.8
>>> numericreadout("COc1ccc(C(=O)C[n+]2cn(C)c3c2C(=O)c2ccccc2C3=O)cc1")
48.8
>>> numericreadout("CC(C)Cn1c[n+](CC(=O)c2ccco2)c2c1C(=O)c1ccccc1C2=O")
23
>>> numericreadout("C#CCn1c[n+](CC(=O)c2ccc([N+](=O)[O-])cc2)c2c1C(=O)c1ccccc1C2=O")
1.26
>>> numericreadout("CC(C)Cn1c[n+](CC(=O)c2ccccc2[N+](=O)[O-])c2c1C(=O)c1ccccc1C2=O")
3.78
>>> numericreadout("CCC(C)n1c[n+](CC(=O)c2ccc([N+](=O)[O-])cc2)c2c1C(=O)c1ccccc1C2=O (configuration not stated)")
15.1
>>> numericreadout("CC(C)Cn1c[n+](CC(=O)c2ccccc2)c2c1C(=O)c1ccccc1C2=O")
8.44
>>> numericreadout("COCCn1c[n+](CC(=O)c2ccc([N+](=O)[O-])cc2)c2c1C(=O)c1ccccc1C2=O")
14.2
>>> numericreadout("CC(C)Cn1c[n+](CC(=O)c2ccc([N+](=O)[O-])cc2)c2c1C(=O)c1ccccc1C2=O")
4.6
>>> numericreadout("Cn1c[n+](CC(=O)C(C)(C)C)c2c1C(=O)c1ccccc1C2=O")
11.4
>>> numericreadout("CC(C)Cn1c[n+](CC(=O)N(C)C)c2c1C(=O)c1ccccc1C2=O")
147
>>> numericreadout("COc1ccc(C(=O)C[n+]2cn(CC(C)C)c3c2C(=O)c2ccccc2C3=O)cc1")
12.1

* * *

methodDescription: Selectivity ratio of IC50 for mouse L929 cells to IC50 for human MCF7 cells
Type: toxicity
testConditions: L929 cells versus MCF7 cells, read-out: Ratio IC50
readoutType: selectivity ratio

>>> numericreadout("CCCn1c[n+](CC(=O)c2ccc([N+](=O)[O-])cc2)c2c1C(=O)c1ccccc1C2=O")
2.92
>>> numericreadout("Cn1c[n+](CC(=O)c2ccccc2[N+](=O)[O-])c2c1C(=O)c1ccccc1C2=O")
2.32
>>> numericreadout("Cn1c[n+](CC(=O)c2cccs2)c2c1C(=O)c1ccccc1C2=O")
24.4
>>> numericreadout("Cn1c[n+](CC(=O)c2ccc(F)cc2)c2c1C(=O)c1ccccc1C2=O")
53.5
>>> numericreadout("COCCn1c[n+](CC(=O)c2ccc([N+](=O)[O-])cc2)c2c1C(=O)c1ccccc1C2=O")
2.19
>>> numericreadout("CC(C)Cn1c[n+](CC(=O)c2cccs2)c2c1C(=O)c1ccccc1C2=O.[Br-]")
256
>>> numericreadout("CC(C)Cn1c[n+](CC(=O)c2ccccc2[N+](=O)[O-])c2c1C(=O)c1ccccc1C2=O")
2.4
>>> numericreadout("Cc1ccc(C(=O)C[n+]2cn(CC(C)C)c3c2C(=O)c2ccccc2C3=O)cc1")
8.57
>>> numericreadout("Cn1c[n+](CC(=O)c2ccccc2)c2c1C(=O)c1ccccc1C2=O")
80.8
>>> numericreadout("CC(C)Cn1c[n+](CC(=O)c2ccc(C(F)(F)F)cc2)c2c1C(=O)c1ccccc1C2=O")
3.46
>>> numericreadout("O=C(C[n+]1cn(-c2ccccc2)c2c1C(=O)c1ccccc1C2=O)c1ccc([N+](=O)[O-])cc1")
0.52
>>> numericreadout("Cn1c[n+](CC(=O)c2cccc([N+](=O)[O-])c2)c2c1C(=O)c1ccccc1C2=O")
2.86
>>> numericreadout("Cn1c[n+](CC(=O)c2ccc([N+](=O)[O-])cc2)c2c1C(=O)c1ccccc1C2=O")
4.39
>>> numericreadout("CCn1c[n+](CC(=O)c2ccc([N+](=O)[O-])cc2)c2c1C(=O)c1ccccc1C2=O")
1.66
>>> numericreadout("C#CCn1c[n+](CC(=O)c2ccc([N+](=O)[O-])cc2)c2c1C(=O)c1ccccc1C2=O")
0.46
>>> numericreadout("Cn1c[n+](CC(=O)c2ccc(Cl)cc2)c2c1C(=O)c1ccccc1C2=O")
2.9
>>> numericreadout("CC(C)Cn1c[n+](CC(=O)c2ccc([N+](=O)[O-])cc2)c2c1C(=O)c1ccccc1C2=O")
2
>>> numericreadout("CC(C)Cn1c[n+](CC(=O)c2ccc(F)cc2)c2c1C(=O)c1ccccc1C2=O")
21.9
>>> numericreadout("CN(C)C(=O)C[n+]1cn(C)c2c1C(=O)c1ccccc1C2=O")
0.57
>>> numericreadout("CCC(C)n1c[n+](CC(=O)c2ccc([N+](=O)[O-])cc2)c2c1C(=O)c1ccccc1C2=O (stereo unspecified)")
3.04
>>> numericreadout("CCCCn1c[n+](CC(=O)c2ccc([N+](=O)[O-])cc2)c2c1C(=O)c1ccccc1C2=O")
3.23

* * *

methodDescription: Selectivity ratio of IC50 for mouse L929 cells to IC50 for human A549 cells
Type: toxicity
testConditions: L929 cells versus A549 cells, read-out: Ratio IC50
readoutType: selectivity ratio

>>> result("Cn1c[n+](CC(=O)c2ccc(Cl)cc2)c2c1C(=O)c1ccccc1C2=O")
14.2
>>> result("CN(C)C(=O)C[n+]1cn(C)c2c1C(=O)c1ccccc1C2=O")
43
>>> result("Cn1c[n+](CC(=O)c2ccc(Br)cc2)c2c1C(=O)c1ccccc1C2=O")
21.8
>>> result("CC(C)Cn1c[n+](CC(=O)C(C)(C)C)c2c1C(=O)c1ccccc1C2=O")
3.15
>>> result("CC(C)Cn1c[n+](CC(=O)c2cccc([N+](=O)[O-])c2)c2c1C(=O)c1ccccc1C2=O")
5.59
>>> result("CC(C)Cn1c[n+](CC(=O)c2ccc(F)cc2)c2c1C(=O)c1ccccc1C2=O")
82
>>> result("CCCn1c[n+](CC(=O)c2ccc([N+](=O)[O-])cc2)c2c1C(=O)c1ccccc1C2=O")
8.07
>>> result("Cn1c[n+](CC(=O)c2cccc([N+](=O)[O-])c2)c2c1C(=O)c1ccccc1C2=O")
16.8
>>> result("CC(C)Cn1c[n+](CC(=O)c2ccc3ccccc3c2)c2c1C(=O)c1ccccc1C2=O")
13.6
>>> result("CC(C)Cn1c[n+](CC(=O)c2ccc(Cl)cc2)c2c1C(=O)c1ccccc1C2=O")
2.85
>>> result("CC(C)Cn1c[n+](CC(=O)c2cccs2)c2c1C(=O)c1ccccc1C2=O.[Br-]")
61
>>> result("O=C(C[n+]1cn(C2CC2)c2c1C(=O)c1ccccc1C2=O)c1ccc([N+](=O)[O-])cc1")
0.5
>>> result("Cn1c[n+](CC(=O)c2ccc3ccccc3c2)c2c1C(=O)c1ccccc1C2=O")
13.6
>>> result("CC(C)Cn1c[n+](CC(=O)c2ccc(Br)cc2)c2c1C(=O)c1ccccc1C2=O")
6.46
>>> result("CC(C)Cn1c[n+](CC(=O)c2ccc(C(F)(F)F)cc2)c2c1C(=O)c1ccccc1C2=O")
3.37
>>> result("Cn1c[n+](CC(=O)c2ccco2)c2c1C(=O)c1ccccc1C2=O")
136
>>> result("Cn1c[n+](CC(=O)c2ccccc2[N+](=O)[O-])c2c1C(=O)c1ccccc1C2=O")
83.6
>>> result("Cc1cc(C)c(-n2c[n+](CC(=O)c3ccc([N+](=O)[O-])cc3)c3c2C(=O)c2ccccc2C3=O)c(C)c1")
3.71
>>> result("Cn1c[n+](CC(=O)c2cccs2)c2c1C(=O)c1ccccc1C2=O")
76.3

* * *

We begin with a simple list: items and their reported selectivity ratio.
methodDescription: Selectivity ratio of IC50 for mouse L929 cells to IC50 for human HeLa cells
Type: toxicity
testConditions: L929 cells versus HeLa cells, read-out: Ratio IC50
readoutType: selectivity ratio

>>> numericreadout("CCC(C)n1c[n+](CC(=O)c2ccc([N+](=O)[O-])cc2)c2c1C(=O)c1ccccc1C2=O (centres undefined)")
3.23
>>> numericreadout("Cc1ccc(C(=O)C[n+]2cn(CC(C)C)c3c2C(=O)c2ccccc2C3=O)cc1")
2.67
>>> numericreadout("CCCCn1c[n+](CC(=O)c2ccc([N+](=O)[O-])cc2)c2c1C(=O)c1ccccc1C2=O")
4.55
>>> numericreadout("CC(C)Cn1c[n+](CC(=O)c2cccc([N+](=O)[O-])c2)c2c1C(=O)c1ccccc1C2=O")
3.86
>>> numericreadout("CC(C)Cn1c[n+](CC(=O)c2ccc(F)cc2)c2c1C(=O)c1ccccc1C2=O")
40
>>> numericreadout("CC(C)Cn1c[n+](CC(=O)c2ccc(C(F)(F)F)cc2)c2c1C(=O)c1ccccc1C2=O")
2.86
>>> numericreadout("CC(C)Cn1c[n+](CC(=O)c2ccccc2[N+](=O)[O-])c2c1C(=O)c1ccccc1C2=O")
1.81
>>> numericreadout("Cc1ccc(C(=O)C[n+]2cn(C)c3c2C(=O)c2ccccc2C3=O)cc1")
4.2
>>> numericreadout("Cn1c[n+](CC(=O)c2ccc([N+](=O)[O-])cc2)c2c1C(=O)c1ccccc1C2=O")
5.26
